B1: CPEB3 Ribozyme (parent)
chain: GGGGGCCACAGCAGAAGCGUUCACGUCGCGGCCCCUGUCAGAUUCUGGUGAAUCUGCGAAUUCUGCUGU

Variants of: B1
Assay: self-cleavage, relative activity (ratio to wild type); higher = more cleavage; co-transcriptional
Category scheme (self-cleavage): low value: < 0.2; medium value: ≥ 0.2 and < 0.7; high value: ≥ 0.7

C45G C63G : high value

Could you place C35G C66G in its proper category? Many thanks.
medium value

From: the RNAGym collection of RNA variant scans (doi:10.7554/elife.80360)
